Experimental protocol: absolute recovery over mixed-bed multilayer solid-phase extraction; higher = better recovery
Measurement conditions: surface water; enrichment method: SPE
Readout type: absolute recovery (%)
Answers are plain numbers, in %.

Previously resolved entries follow.
CCCC(NC(C)C(=O)N1C(C(=O)[O-])CC2CCCCC21)C(=O)OCC (configuration not stated) : 88.8
CNC(=O)Nc1ccc(C(C)C)cc1 : 93.3
COC(=O)NC(C(=O)NC(Cc1ccccc1)C(O)CN(Cc1ccc(-c2ccccn2)cc1)NC(=O)C(NC(=O)OC)C(C)(C)C)C(C)(C)C (configuration not stated) : 100
O=C(NCc1ncc(C(F)(F)F)cc1Cl)c1c(Cl)cccc1Cl [Fluopicolide] : 104
CCOC1Oc2ccc(OS(C)(=O)=O)cc2C1(C)C (configuration not stated) : 102
CCCN(CCC)c1c([N+](=O)[O-])cc(S(N)(=O)=O)cc1[N+](=O)[O-] : 102

Give one value of absolute recovery per listed compound.
1. O=C([O-])C=C(F)C(F)(F)C(F)(F)C(F)(F)C(F)(F)C(F)(F)F
2. O=C([O-])c1cc(Br)c([O-])c(Br)c1 [3-5-Dibromo-4-hydroxybenzoic-acid]
3. O=C([O-])c1ccccc1Nc1cccc(C(F)(F)F)c1
4. COc1ccc2c3c1OC1C(=O)CCC4C(C2)[NH+](C)CCC314 (configuration not stated) [Hydrocodone]

Reply:
[89.6, 92.6, 106, 89.4]

Give one value of absolute recovery per listed compound.
1. C[NH2+]C(C)C(=O)c1ccc(C)cc1 (configuration not stated)
2. [NH3+]C(CC(=O)N1CCn2c(nnc2C(F)(F)F)C1)Cc1cc(F)c(F)cc1F (configuration not stated)
3. CC(=O)N1CCN(c2ccc(OCC3COC(Cn4cc[nH+]c4)(c4ccc(Cl)cc4Cl)O3)cc2)CC1 (configuration not stated)
4. CN1C(=O)CN=C(C2=CCCCC2)c2cc(Cl)ccc21
5. CC(=O)Nc1ccc(S(=O)(=O)[N-]c2nc(C)cc(C)n2)cc1
6. CN(C(=O)CO)c1c(I)c(C(=O)NCC(O)CO)c(I)c(C(=O)NCC(O)CO)c1I (configuration not stated)
7. Cn1nnc2ccccc21
8. C#CC[NH2+]C(C)Cc1ccccc1 (configuration not stated)

Reply:
1: 66.2; 2: 67.1; 3: 62.2; 4: 63.8; 5: 91; 6: 67.8; 7: 93.1; 8: 84.7

Give one value of absolute recovery per listed compound.
1. CON=C(C(=O)OC)c1ccccc1CON=C(C)c1cccc(C(F)(F)F)c1
2. CC1COC(=O)c2cc3c(cc21)C(C)(C)C(C)C3(C)C (configuration not stated)
3. CC(C)[NH2+]CC(O)COc1cccc2ccccc12 (configuration not stated)
4. C[N+]1([O-])CCN2c3ccccc3Cc3ccccc3C2C1 (configuration not stated) [Mianserin-N-Oxide]

Reply:
1: 97.3; 2: 104; 3: 96.8; 4: 103

Reference source: the supplement of paper PMC6470124
